// each record: one item and its Ki for Somatostatin receptor type 3 (Homo sapiens, UniProt P32745)
value.kind: Ki

- structure.notation: "NCCCCn1c(SCCc2c[nH]c3cc(F)ccc23)nnc1-c1ccc2ccccc2n1"
  readout.value: "100 nM"
- structure.notation: "Cc1cccc2c(C(=O)CCSc3nnc(-c4ccc5ccccc5n4)n3CCCCN)c[nH]c12"
  readout.value: "170 nM"

* * *

Molecular target: Somatostatin receptor type 2 (Homo sapiens, UniProt P30874)
Sequence (P30874 whole entry): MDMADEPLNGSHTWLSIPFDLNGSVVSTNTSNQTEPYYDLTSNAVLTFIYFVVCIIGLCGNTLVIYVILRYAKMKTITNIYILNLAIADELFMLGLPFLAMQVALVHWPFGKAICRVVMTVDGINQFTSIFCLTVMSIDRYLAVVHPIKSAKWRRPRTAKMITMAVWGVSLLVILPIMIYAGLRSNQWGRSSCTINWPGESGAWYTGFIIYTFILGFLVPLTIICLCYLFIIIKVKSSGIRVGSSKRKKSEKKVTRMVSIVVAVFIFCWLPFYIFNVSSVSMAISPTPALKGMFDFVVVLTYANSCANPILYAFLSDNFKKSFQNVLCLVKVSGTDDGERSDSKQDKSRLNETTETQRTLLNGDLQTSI
Test: Inhibition of forskolin-induced cAMP accumulation in CHO-K1 cells expressing human sst2 receptor
Form field: EC50 (one value per entry).

- structure.notation: "NCCCCn1c(SCCc2c[nH]c3cc(F)ccc23)nnc1-c1ccc2ccccc2n1"
  study.target: "Somatostatin receptor type 2 (Homo sapiens, UniProt P30874)"
  EC50 [nM]: 14
- structure.notation: "Cc1cccc2c(C(=O)CCSc3nnc(-c4ccc5ccccc5n4)n3CCCCN)c[nH]c12"
  study.target: "Somatostatin receptor type 2 (Homo sapiens, UniProt P30874)"
  EC50 [nM]: 4
- structure.notation: "NCCCCn1c(SCCc2c[nH]c3ccc(Cl)cc23)nnc1-c1ccc2ccccc2n1"
  study.target: "Somatostatin receptor type 2 (Homo sapiens, UniProt P30874)"
  EC50 [nM]: 6.3
- structure.notation: "Cc1cccc2c(CCSc3nnc(-c4ccc5ccccc5n4)n3CCCCN)c[nH]c12"
  study.target: "Somatostatin receptor type 2 (Homo sapiens, UniProt P30874)"
  EC50 [nM]: 22

* * *

Form field: Ki (one value per entry).
Molecular target: Somatostatin receptor type 4 (Homo sapiens, UniProt P31391)
Sequence (P31391 whole entry): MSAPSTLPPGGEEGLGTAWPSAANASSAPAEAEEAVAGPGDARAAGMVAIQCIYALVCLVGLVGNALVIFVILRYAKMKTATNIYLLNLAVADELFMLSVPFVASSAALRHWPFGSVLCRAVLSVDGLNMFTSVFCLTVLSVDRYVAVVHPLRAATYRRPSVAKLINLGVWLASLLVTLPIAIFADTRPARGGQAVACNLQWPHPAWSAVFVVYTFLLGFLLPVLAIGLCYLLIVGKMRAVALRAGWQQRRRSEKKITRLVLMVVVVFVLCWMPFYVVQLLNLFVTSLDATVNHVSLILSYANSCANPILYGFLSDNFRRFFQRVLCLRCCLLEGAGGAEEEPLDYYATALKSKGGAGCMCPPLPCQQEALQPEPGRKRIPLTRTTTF

- structure.notation: "NCCCCn1c(SCCc2c[nH]c3cc(F)ccc23)nnc1-c1ccc2ccccc2n1"
  study.target: "Somatostatin receptor type 4 (Homo sapiens, UniProt P31391)"
  Ki, nM: 74
- structure.notation: "Cc1cccc2c(CCSc3nnc(-c4ccc5ccccc5n4)n3CCCCN)c[nH]c12"
  study.target: "Somatostatin receptor type 4 (Homo sapiens, UniProt P31391)"
  Ki, nM: 140

* * *

Molecular target: Somatostatin receptor type 5 (Homo sapiens, UniProt P35346)
Sequence (P35346 whole entry): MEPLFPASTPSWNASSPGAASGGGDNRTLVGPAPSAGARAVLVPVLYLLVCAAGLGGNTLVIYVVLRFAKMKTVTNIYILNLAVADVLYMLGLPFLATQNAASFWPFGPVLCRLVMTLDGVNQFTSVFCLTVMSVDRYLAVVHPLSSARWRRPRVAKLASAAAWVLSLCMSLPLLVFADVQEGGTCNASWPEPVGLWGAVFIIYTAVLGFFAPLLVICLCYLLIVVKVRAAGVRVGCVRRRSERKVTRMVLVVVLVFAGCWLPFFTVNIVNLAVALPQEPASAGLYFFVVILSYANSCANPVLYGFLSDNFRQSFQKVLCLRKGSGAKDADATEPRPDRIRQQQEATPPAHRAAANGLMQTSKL
pKi: −log10 of the molar value.
Form field: pKi (one value per entry).

- structure.notation: "NCCCCn1c(SCCc2c[nH]c3c(Cl)cccc23)nnc1-c1ccc2ccccc2n1"
  pKi: 8.08
- structure.notation: "NCCCCn1c(SCCc2c[nH]c3ccccc23)nnc1-c1ccc2cc(F)ccc2n1"
  pKi: 8.11
- structure.notation: "CCc1ccc(-c2nnc(SCCc3c[nH]c4ccccc34)n2CCCCN)cc1"
  pKi: 7.59
- structure.notation: "NCCCCn1c(SCCc2c[nH]c3ccccc23)nnc1-c1cccc2ccccc12"
  pKi: 6.39
- structure.notation: "Cc1cccc2c(C(=O)C(C)(C)CSc3nnc(-c4ccc5ccccc5n4)n3CCCCN)c[nH]c12"
  pKi: 8.03
- structure.notation: "NCCCCn1c(SCCc2c[nH]c3ccc(Cl)cc23)nnc1-c1ccc2ccccc2n1"
  pKi: 8.64
- structure.notation: "NCCCCCn1c(SCCc2c[nH]c3ccccc23)nnc1-c1ccc2ccccc2c1"
  pKi: 7.15
- structure.notation: "Cc1cccc2c(C(=O)CCSc3nnc(-c4ccc5ccccc5n4)n3CCCCN)c[nH]c12"
  pKi: 9.42
- structure.notation: "NCCCCn1c(SCCc2c[nH]c3ccccc23)nnc1-c1cccc2cc[nH]c12"
  pKi: 7.19
- structure.notation: "Cc1cccc2c(CCSc3nnc(-c4ccc5ccccc5n4)n3CCCCN)c[nH]c12"
  pKi: 8.68
